All values here come from ChEMBL document CHEMBL3046517.

system: Staphylococcus aureus; test: Antibacterial activity against Staphylococcus aureus by broth dilution method; format: functional
MIC reference

| molecule | tgt | units.label | MIC |
| --- | --- | --- | --- |
| CC1(C)S[C@@H]2[C@H](NC(=O)[C@H](N)c3ccccc3)C(=O)N2[C@H]1C(=O)O | Staphylococcus aureus | µg/mL | 250 |
| COc1ccc(N2CCN(c3cc4c(cc3F)c(=O)c(C(=O)N/N=C\c3ccccc3)cn4C3CC3)CC2)cc1 | Staphylococcus aureus | µg/mL | 1000 |
| COc1ccc(N2CCN(c3cc4c(cc3F)c(=O)c(C(=O)N/N=C\c3ccc(Cl)cc3)cn4C3CC3)CC2)cc1 | Staphylococcus aureus | µg/mL | 1000 |
| COc1ccc(N2CCN(c3cc4c(cc3F)c(=O)c(C(=O)NN3C(=O)CSC3c3ccccc3[N+](=O)[O-])cn4C3CC3)CC2)cc1 (stereo unspecified) | Staphylococcus aureus | µg/mL | 200 |
| O=C(N/N=C\c1ccc(O)cc1)c1cn(C2CC2)c2cc(Cl)c(F)cc2c1=O | Staphylococcus aureus | µg/mL | 500 |
| COc1ccc(N2CCN(c3cc4c(cc3F)c(=O)c(C(=O)NN3C(=O)CSC3c3ccccc3O)cn4C3CC3)CC2)cc1 (stereo unspecified) | Staphylococcus aureus | µg/mL | 500 |
| COc1cc(/C=N\NC(=O)c2cn(C3CC3)c3cc(Cl)c(F)cc3c2=O)ccc1O | Staphylococcus aureus | µg/mL | 200 |
| O=C(N/N=C\c1ccc(Cl)cc1)c1cn(C2CC2)c2cc(Cl)c(F)cc2c1=O | Staphylococcus aureus | µg/mL | 1000 |
| COc1ccc(C2SCC(=O)N2NC(=O)c2cn(C3CC3)c3cc(N4CCN(c5ccc(OC)cc5)CC4)c(F)cc3c2=O)cc1 (stereo unspecified) | Staphylococcus aureus | µg/mL | 1000 |
| COc1ccc(N2CCN(c3cc4c(cc3F)c(=O)c(C(=O)N/N=C\c3ccc(O)cc3)cn4C3CC3)CC2)cc1 | Staphylococcus aureus | µg/mL | 500 |
| COc1ccc(/C=N\NC(=O)c2cn(C3CC3)c3cc(N4CCN(c5ccc(OC)cc5)CC4)c(F)cc3c2=O)cc1 | Staphylococcus aureus | µg/mL | 500 |

* * *

test system: Staphylococcus aureus; assay: Antibacterial activity against Staphylococcus aureus by broth dilution method; type: functional
Reported log10 MIC values are given for each entry in this list.
measurement.label: log10 MIC (log10 of the value in µg/mL)

| compound | log10 MIC |
| --- | --- |
| COc1ccc(N2CCN(c3cc4c(cc3F)c(=O)c(C(=O)N/N=C\c3ccccc3[N+](=O)[O-])cn4C3CC3)CC2)cc1 | 2.18 |
| O=C(O)c1cn(C2CC2)c2cc(N3CCNCC3)c(F)cc2c1=O | 1.70 |
| CCn1cc(C(=O)O)c(=O)c2cc(F)c(N3CCNCC3)cc21 | 1.00 |
| COc1ccc(N2CCN(c3cc4c(cc3F)c(=O)c(C(=O)N/N=C\c3ccccc3O)cn4C3CC3)CC2)cc1 | 2.70 |
| O=C(N[C@H](CO)[C@H](O)c1ccc([N+](=O)[O-])cc1)C(Cl)Cl | 1.70 |
| O=C(N/N=C\c1ccccc1Cl)c1cn(C2CC2)c2cc(Cl)c(F)cc2c1=O | 2.30 |
| COc1ccc(N2CCN(c3cc4c(cc3F)c(=O)c(C(=O)NN3C(=O)CSC3c3ccccc3)cn4C3CC3)CC2)cc1 (stereo not drawn) | 2.70 |
| COc1ccc(N2CCN(c3cc4c(cc3F)c(=O)c(C(=O)NN3C(=O)CSC3c3cccc([N+](=O)[O-])c3)cn4C3CC3)CC2)cc1 (stereo not drawn) | 2.70 |

* * *

Listed here: items and their measured MIC.
tested on: Staphylococcus aureus; assay: Antibacterial activity against Staphylococcus aureus by broth dilution method; format: functional

| compound | MIC (µg/mL) |
| --- | --- |
| NNC(=O)c1cn(C2CC2)c2cc(Cl)c(F)cc2c1=O | 500 |
| COc1ccc(N2CCN(c3cc4c(cc3F)c(=O)c(C(=O)N/N=C\c3ccc(F)cc3)cn4C3CC3)CC2)cc1 | 500 |
| COc1ccc(N2CCN(c3cc4c(cc3F)c(=O)c(C(=O)NN3C(=O)CSC3c3ccc(Cl)cc3)cn4C3CC3)CC2)cc1 (configuration not stated) | 100 |
| COc1ccc(N2CCN(c3cc4c(cc3F)c(=O)c(C(=O)NN3C(=O)CSC3c3ccc(O)cc3)cn4C3CC3)CC2)cc1 (configuration not stated) | 500 |
| COc1ccc(N2CCN(c3cc4c(cc3F)c(=O)c(C(=O)N/N=C\c3ccc(O)c(OC)c3)cn4C3CC3)CC2)cc1 | 500 |
| O=C(O)c1cn(C2CC2)c2cc(Cl)c(F)cc2c1=O | 100 |
| COc1ccc(N2CCN(c3cc4c(cc3F)c(=O)c(C(=O)N/N=C\c3cccc([N+](=O)[O-])c3)cn4C3CC3)CC2)cc1 | 1000 |
| O=C(N/N=C\c1ccc(F)cc1)c1cn(C2CC2)c2cc(Cl)c(F)cc2c1=O | 500 |
| O=C(N/N=C\c1cccc([N+](=O)[O-])c1)c1cn(C2CC2)c2cc(Cl)c(F)cc2c1=O | 1000 |
| O=C(N/N=C\c1ccccc1O)c1cn(C2CC2)c2cc(Cl)c(F)cc2c1=O | 500 |
| COc1ccc(N2CCN(c3cc4c(cc3F)c(=O)c(C(=O)NN3C(=O)CSC3c3ccc(F)cc3)cn4C3CC3)CC2)cc1 (configuration not stated) | 1000 |
| O=C(N/N=C\c1ccccc1)c1cn(C2CC2)c2cc(Cl)c(F)cc2c1=O | 500 |
| COc1ccc(N2CCN(c3cc4c(cc3F)c(=O)c(C(=O)NN3C(=O)CSC3c3ccccc3Cl)cn4C3CC3)CC2)cc1 (configuration not stated) | 500 |
| O=C(N/N=C\c1ccccc1[N+](=O)[O-])c1cn(C2CC2)c2cc(Cl)c(F)cc2c1=O | 100 |
| COc1ccc(/C=N\NC(=O)c2cn(C3CC3)c3cc(Cl)c(F)cc3c2=O)cc1 | 500 |
| COc1ccc(N2CCN(c3cc4c(cc3F)c(=O)c(C(=O)N/N=C\c3ccccc3Cl)cn4C3CC3)CC2)cc1 | 500 |
| COc1ccc(N2CCN(c3cc4c(cc3F)c(=O)c(C(=O)NN3C(=O)CSC3c3ccc(O)c(OC)c3)cn4C3CC3)CC2)cc1 (configuration not stated) | 1000 |
